Data origin, for the record: paper PMC9405973

- target under test: Efl1 R1086Q P151L (Saccharomyces cerevisiae, UniProt P53893, P151L/R1086Q)
- Construct: made in house; host or cells: Saccharomyces cerevisiae
- Sequence (P53893 whole entry P151L/R1086Q): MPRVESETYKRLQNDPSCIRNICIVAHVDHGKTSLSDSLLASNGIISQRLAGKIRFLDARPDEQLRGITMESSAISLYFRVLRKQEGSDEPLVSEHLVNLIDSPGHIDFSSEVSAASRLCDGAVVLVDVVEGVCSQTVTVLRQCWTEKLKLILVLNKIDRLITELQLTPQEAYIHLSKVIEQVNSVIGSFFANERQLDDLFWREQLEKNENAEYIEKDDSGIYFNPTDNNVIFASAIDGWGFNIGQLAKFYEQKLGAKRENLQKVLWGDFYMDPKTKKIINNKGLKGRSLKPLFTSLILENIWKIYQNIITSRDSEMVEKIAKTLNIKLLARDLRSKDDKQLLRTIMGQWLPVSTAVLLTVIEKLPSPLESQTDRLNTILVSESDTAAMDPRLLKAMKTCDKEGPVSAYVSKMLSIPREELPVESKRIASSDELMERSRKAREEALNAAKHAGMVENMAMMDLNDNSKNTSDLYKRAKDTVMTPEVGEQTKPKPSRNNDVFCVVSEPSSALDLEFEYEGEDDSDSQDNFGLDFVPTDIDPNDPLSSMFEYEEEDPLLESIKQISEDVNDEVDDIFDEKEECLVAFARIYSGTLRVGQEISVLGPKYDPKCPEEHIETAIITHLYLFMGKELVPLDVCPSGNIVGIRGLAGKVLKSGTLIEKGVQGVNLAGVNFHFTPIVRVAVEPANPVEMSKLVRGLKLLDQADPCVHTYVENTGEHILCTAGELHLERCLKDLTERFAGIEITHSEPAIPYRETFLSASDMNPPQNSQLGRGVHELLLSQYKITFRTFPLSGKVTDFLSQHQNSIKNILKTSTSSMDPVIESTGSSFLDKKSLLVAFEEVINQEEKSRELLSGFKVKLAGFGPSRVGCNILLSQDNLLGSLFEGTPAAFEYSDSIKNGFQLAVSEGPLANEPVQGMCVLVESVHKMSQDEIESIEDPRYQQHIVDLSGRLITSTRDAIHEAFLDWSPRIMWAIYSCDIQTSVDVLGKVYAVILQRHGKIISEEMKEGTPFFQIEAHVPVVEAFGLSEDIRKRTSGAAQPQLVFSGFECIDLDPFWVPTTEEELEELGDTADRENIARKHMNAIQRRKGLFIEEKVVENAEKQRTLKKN
- protocol summary: ITC: binding of GTP to double mutant Efl1 R1086Q P151L
- cond: Kd, +Mg^2+, 25 °C
recorded endpoint: Kd (µM)
Field: numeric (µM). Do not append units.

Form entry - test system: Efl1 R1086Q P151L (Saccharomyces cerevisiae, UniProt P53893, P151L/R1086Q); read-out: Kd; compound: Nc1nc2c(ncn2[C@@H]2O[C@H](COP(=O)(O)OP(=O)(O)OP(=O)(O)O)[C@@H](O)[C@H]2O)c(=O)[nH]1 [GTP]
18

---

- target under test: Efl1 R1086Q•Sdo1 (Saccharomyces cerevisiae, UniProt P53893, R1086Q)
- Construct: made in house; host or cells: Efl1: Saccharomyces cerevisiae; Sdo1: Escherichia coli C41
- Sequence (P53893 whole entry R1086Q): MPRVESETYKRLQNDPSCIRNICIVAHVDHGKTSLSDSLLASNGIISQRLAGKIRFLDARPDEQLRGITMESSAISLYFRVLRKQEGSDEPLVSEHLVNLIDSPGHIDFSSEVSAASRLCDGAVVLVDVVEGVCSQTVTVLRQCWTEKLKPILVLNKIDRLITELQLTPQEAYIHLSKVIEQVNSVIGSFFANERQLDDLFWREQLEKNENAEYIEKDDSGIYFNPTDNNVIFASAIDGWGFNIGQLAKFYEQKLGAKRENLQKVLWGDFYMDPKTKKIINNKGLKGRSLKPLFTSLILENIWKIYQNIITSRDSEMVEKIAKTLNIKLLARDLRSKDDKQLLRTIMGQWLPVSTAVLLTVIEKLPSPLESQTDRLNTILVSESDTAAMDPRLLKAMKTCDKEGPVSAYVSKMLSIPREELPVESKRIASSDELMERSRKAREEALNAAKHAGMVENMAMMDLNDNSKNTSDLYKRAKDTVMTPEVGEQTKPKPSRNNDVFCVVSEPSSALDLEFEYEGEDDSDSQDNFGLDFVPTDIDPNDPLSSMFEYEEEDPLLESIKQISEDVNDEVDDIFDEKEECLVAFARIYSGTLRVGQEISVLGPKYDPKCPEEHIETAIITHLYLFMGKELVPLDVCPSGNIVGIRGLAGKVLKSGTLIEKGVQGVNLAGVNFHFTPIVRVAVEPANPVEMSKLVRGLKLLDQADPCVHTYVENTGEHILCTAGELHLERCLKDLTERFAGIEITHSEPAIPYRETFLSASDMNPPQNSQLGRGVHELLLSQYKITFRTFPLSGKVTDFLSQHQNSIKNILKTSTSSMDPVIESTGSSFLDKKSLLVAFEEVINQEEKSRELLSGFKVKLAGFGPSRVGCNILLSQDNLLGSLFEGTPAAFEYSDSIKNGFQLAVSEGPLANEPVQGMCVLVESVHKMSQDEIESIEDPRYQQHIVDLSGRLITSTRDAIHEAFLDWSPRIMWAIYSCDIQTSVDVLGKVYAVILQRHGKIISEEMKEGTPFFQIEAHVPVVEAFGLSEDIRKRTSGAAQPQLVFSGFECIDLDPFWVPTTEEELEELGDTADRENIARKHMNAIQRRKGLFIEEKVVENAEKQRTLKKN
- Sequence (Q07953 whole entry, further chain): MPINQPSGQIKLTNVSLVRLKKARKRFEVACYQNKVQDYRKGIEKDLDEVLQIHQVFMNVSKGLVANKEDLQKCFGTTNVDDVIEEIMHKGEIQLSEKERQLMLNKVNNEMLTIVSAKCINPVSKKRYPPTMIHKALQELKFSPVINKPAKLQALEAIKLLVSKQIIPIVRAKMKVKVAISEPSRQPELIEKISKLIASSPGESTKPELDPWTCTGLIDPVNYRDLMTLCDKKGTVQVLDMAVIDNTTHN
- protocol summary: ITC: binding of guanine nucleotides to pre-formed complex Efl1 R1086Q•Sdo1
- cond: Kd, +Mg^2+, 25 °C
Hi there, I'd appreciate the recorded Kd for every entry that follows.
Hey, just the number and the unit after it is fine.

Form entry - test system: Efl1 R1086Q•Sdo1 (Saccharomyces cerevisiae, UniProt P53893, R1086Q); read-out: Kd; compound: Nc1nc2c(ncn2[C@@H]2O[C@H](COP(=O)(O)OP(=O)(O)OP(=O)(O)O)[C@@H](O)[C@H]2O)c(=O)[nH]1
29 µM

How about Nc1nc2c(ncn2[C@@H]2O[C@H](COP(=O)(O)OP(=O)(O)O)[C@@H](O)[C@H]2O)c(=O)[nH]1 ?
9 µM

---

- target under test: Efl1 R1086Q•Sdo1 (Saccharomyces cerevisiae, UniProt P53893, R1086Q)
- Construct: made in house; host or cells: Efl1: Saccharomyces cerevisiae; Sdo1: Escherichia coli C41
- protocol summary: ITC: binding of guanine nucleotides to pre-formed complex Efl1 R1086Q•Sdo1
- cond: Kd, +Mg^2+, 30 °C
recorded endpoint: Kd (µM)
Field: numeric (µM). Do not append units.

Dear colleague, I am looking for the recorded Kd of the following compound: Nc1nc2c(ncn2[C@@H]2O[C@H](COP(=O)(O)OP(=O)(O)O)[C@@H](O)[C@H]2O)c(=O)[nH]1 [GDP]
8

How about Nc1nc2c(ncn2[C@@H]2O[C@H](COP(=O)(O)OP(=O)(O)OP(=O)(O)O)[C@@H](O)[C@H]2O)c(=O)[nH]1 [GTP] ?
58

---

- target under test: Efl1 R1086Q (Saccharomyces cerevisiae, UniProt P53893, R1086Q)
- Construct: made in house; host or cells: Saccharomyces cerevisiae
- Sequence (P53893 whole entry R1086Q): as the sequence (P53893 whole entry R1086Q) above
- protocol summary: Isothermal titration calorimetry (ITC): binding of guanine nucleotides or Sdo1 to Efl1 R1086Q
- cond: Kd, guanine nucleotide, −Mg^2+, 35 °C
recorded endpoint: pKd
Lab note — pKd values are minus log10 of concentrations in M.

Dear colleague, I am looking for the recorded pKd of the following compound: Nc1nc2c(ncn2[C@@H]2O[C@H](COP(=O)(O)OP(=O)(O)O)[C@@H](O)[C@H]2O)c(=O)[nH]1 [GDP]
5.40

How about Nc1nc2c(ncn2[C@@H]2O[C@H](COP(=O)(O)OP(=O)(O)OP(=O)(O)O)[C@@H](O)[C@H]2O)c(=O)[nH]1 [GTP] ?
5.22
